molecular target: Sodium-dependent serotonin transporter (Rattus norvegicus); experiment: Binding affinity against serotonin transporter (SERT) by displacement of [3H]paroxetine in male wistar rats
Sequence (P31652 whole entry): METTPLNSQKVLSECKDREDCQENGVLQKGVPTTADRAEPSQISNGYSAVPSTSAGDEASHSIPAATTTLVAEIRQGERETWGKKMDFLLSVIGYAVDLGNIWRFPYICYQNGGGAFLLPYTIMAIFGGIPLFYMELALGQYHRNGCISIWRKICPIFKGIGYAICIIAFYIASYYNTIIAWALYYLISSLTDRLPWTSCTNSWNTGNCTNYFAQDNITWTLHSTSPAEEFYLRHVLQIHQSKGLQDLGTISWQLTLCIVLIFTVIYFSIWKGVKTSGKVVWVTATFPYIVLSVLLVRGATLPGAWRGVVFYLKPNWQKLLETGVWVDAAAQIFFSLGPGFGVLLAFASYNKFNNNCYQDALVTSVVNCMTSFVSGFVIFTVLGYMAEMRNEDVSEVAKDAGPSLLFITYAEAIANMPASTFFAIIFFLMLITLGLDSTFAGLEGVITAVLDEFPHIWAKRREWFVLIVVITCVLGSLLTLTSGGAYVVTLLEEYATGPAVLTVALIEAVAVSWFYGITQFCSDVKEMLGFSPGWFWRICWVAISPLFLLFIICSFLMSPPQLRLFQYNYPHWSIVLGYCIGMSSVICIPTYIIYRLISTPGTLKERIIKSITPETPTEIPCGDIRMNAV
pIC50: −log10 of the molar value.
recorded endpoint: pIC50

Field: pIC50. Fill in for each record below.
1. CN1CCC(C(Oc2ccc(F)cc2)c2ccccc2)CC1 (stereo unspecified)
2. CCCN(CCC)C1CCc2cccc(O)c2C1 (stereo unspecified)
3. Cc1ccc(OC(CCN2CCc3ccccc3C2)c2ccccc2)cc1 (stereo unspecified)
4. Oc1cc2c(cc1O)CN(CCC(Oc1ccccc1F)c1ccccc1)CC2 (stereo unspecified)

Reply:
< 6.00
< 6.00
< 6.00
< 6.00

Field: pIC50. Fill in for each record below.
1. c1ccc(-c2ccccc2OC(c2ccccc2)C2CCNCC2)cc1 (stereo unspecified)
2. COc1cc2c(cc1OC)CN(CCC(Oc1ccc(Cl)cc1)c1ccccc1)CC2 (stereo unspecified)

Reply:
["< 6.00", "< 6.00"]
